// data source = PubChem BioAssay (NCI)

Test system: K-562 leukemia
Assay: NCI-60 one-dose screen, 48 h (100 = growth as untreated, 0 = no growth, -100 = all killed)
Conditions: 10 µM unless noted
Protocol: Cells are grown in 96 well plates and exposed to the test compound for 48 hours. Compounds are tested at a single concentration, which is 10^-5 M for most compounds. The reported endpoint is percent growth (GI% or GIPRCNT), where numbers from 0 - 100% represent growth inhibition, and numbers from -100% - 0 represent cell death. For example, a value of 40 represents 60% growth inhibition. A value of 0 means no net growth occurred over the course of the experiment. […]
About 83,000 compounds went through this panel and 20% of them were active in at least one assay; those are over-represented in the sample as a whole.
assay.metric: growth (%)
Write the answer as a number in %, unit excluded.

compound	unit.descriptor	growth
Clc1ccc2oc3c(NCCCn4ccnc4)c4ccccc4nc3c2c1	%	4.86

Which value of growth has been reported for `O=C1/C(=C/C2=Cc3ccccc3OC2)SC(=S)N1c1ccc(F)cc1` in the records? 91

And what about the compound COC(=O)C(Cc1ccccc1)NS(=O)(=O)/N=C1\NC(=O)NC1=C(Cl)Cl (centres undefined) ? 91.8

And what about the compound `COc1ccc(-c2nc3ccc(-c4nnc(SCC(=O)Nc5ccc(C(=O)/C=C/c6ccc(Cl)cc6)cc5)o4)cc3[nH]2)cc1OC` ? 92.7

And what about the compound `N=C1CC(=O)NN1C(=O)CSc1nc2sc3c(c2c(=O)n1-c1ccc(Cl)cc1)CCCC3` ? 94.6

And what about the compound `O=C(CSc1nc2sc3c(c2c(=O)n1-c1ccc(Cl)cc1)CCCC3)NNC(=O)Nc1cccc(C(F)(F)F)c1` ? 13.1

And what about the compound O=C1C2=C(C(=O)c3c(O)cccc31)C(c1ccco1)c1sc(=O)[nH]c1S2 (centres undefined) ? 22

And what about the compound `COc1ccc(-c2cc(C(=O)N=Nc3c(O)[nH]c4ccccc34)c3ccccc3n2)cc1OC` ? 106

And what about the compound `N#Cc1c(-c2ccc(Cl)cc2)nc(SCc2ccccc2)nc1N1CCNCC1` ? 0.363
